Ki for assorted compounds
Molecular target: 5-HT transporter (Rattus norvegicus, UniProt P31652)
Construct: frontal cortical membranes prepared from male S.D. rats; from tissue; host or cells: frontal cortical membranes of male Sprague-Dawley rats
Sequence (P31652 whole entry): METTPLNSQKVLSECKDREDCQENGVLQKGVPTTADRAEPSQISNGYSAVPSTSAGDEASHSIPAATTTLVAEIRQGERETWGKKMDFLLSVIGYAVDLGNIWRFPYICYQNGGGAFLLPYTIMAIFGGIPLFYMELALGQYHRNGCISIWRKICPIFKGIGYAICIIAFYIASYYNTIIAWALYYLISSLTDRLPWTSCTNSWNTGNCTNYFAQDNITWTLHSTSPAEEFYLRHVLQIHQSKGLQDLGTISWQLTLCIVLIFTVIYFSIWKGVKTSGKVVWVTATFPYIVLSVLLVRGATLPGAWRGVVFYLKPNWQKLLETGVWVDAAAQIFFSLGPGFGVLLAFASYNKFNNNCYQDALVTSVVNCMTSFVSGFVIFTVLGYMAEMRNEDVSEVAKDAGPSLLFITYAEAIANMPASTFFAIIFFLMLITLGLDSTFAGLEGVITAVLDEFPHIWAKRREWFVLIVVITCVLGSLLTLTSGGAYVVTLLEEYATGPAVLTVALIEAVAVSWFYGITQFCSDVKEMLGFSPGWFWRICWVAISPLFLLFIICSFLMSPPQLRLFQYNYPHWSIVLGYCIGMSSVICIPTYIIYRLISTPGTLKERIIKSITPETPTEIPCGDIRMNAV
Experiment: Rat Brain 3H-Paroxetine Binding Assay (RB 5HT Transporter)
Give the value, in units of nM, as a plain number.

Consider the worked cases shown below.
compound="CC(CN1CC=C(c2c[nH]c3ccc(F)cc23)CC1)c1coc2ccccc12 (stereo not drawn) [Compound 37]" quantity_name=Ki endpoint_unit=nM numeric_value=21
compound="C1=C(c2c[nH]c3ccccc23)CCN(CCc2csc3ccccc23)C1 [Compound 28]" quantity_name=Ki endpoint_unit=nM numeric_value=6.25
compound="Cn1cc(C2=CCN(CCc3coc4ccccc34)CC2)c2ccccc21 [Compound 2]" quantity_name=Ki endpoint_unit=nM numeric_value=6

[in] Which Ki is reported for this compound? CC(CN1CC=C(c2c[nH]c3ccccc23)CC1)c1coc2ccccc12 (stereo not drawn) [Compound 35]
[out] 16

[in] Which Ki is reported for this compound? COc1ccc2c(CCN3CC=C(c4c[nH]c5cc(C#N)ccc45)CC3)coc2c1 [Compound 13]
[out] 3.36

[in] Which Ki is reported for this compound? Cn1cc(C2=CCN(CCc3csc4ccc(Cl)cc34)CC2)c2ccccc21 [Compound 33]
[out] 39

[in] Which Ki is reported for this compound? Cn1cc(C2=CCN(CCc3csc4ccccc34)CC2)c2ccccc21 [Compound 30]
[out] 13

[in] Which Ki is reported for this compound? COc1cccc2c(CC(C)N3CC=C(c4c[nH]c5ccccc45)CC3)coc12 (stereo not drawn) [Compound 41]
[out] 8.93

---

Biological target: UniProt P31645
Sequence (P31645 whole entry): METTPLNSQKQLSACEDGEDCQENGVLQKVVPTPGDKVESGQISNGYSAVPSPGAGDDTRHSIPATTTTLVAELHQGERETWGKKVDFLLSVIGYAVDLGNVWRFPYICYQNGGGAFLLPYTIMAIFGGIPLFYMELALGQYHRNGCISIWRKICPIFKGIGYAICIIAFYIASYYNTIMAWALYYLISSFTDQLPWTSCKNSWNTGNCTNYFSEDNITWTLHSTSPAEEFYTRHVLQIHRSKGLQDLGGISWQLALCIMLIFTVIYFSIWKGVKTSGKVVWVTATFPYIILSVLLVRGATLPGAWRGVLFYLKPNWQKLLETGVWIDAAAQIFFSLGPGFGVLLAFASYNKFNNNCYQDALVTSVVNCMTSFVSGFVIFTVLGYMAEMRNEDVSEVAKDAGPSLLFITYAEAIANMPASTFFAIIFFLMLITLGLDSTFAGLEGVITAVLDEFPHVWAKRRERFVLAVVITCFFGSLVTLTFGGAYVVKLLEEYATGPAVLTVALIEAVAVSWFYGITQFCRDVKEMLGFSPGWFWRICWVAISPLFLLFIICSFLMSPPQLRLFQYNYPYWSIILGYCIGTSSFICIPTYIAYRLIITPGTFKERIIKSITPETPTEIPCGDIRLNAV
Lab note: anything with Ki below 200 nM is marked satisfied; values at 200 nM or higher are marked not satisfied.

Reference set, count: 6
compound="Clc1ccc2scc(CCN3CC=C(c4c[nH]c5ccccc45)CC3)c2c1 [Compound 31]" target_or_system="UniProt P31645" label="not satisfied"
compound="CC(CN1CC=C(c2c[nH]c3ccc(F)cc23)CC1)c1coc2ccccc12 (stereo not shown) [Compound 37]" target_or_system="UniProt P31645" label=satisfied
compound="COc1ccc2c(CCN3CC=C(c4c[nH]c5cc(C#N)ccc45)CC3)coc2c1 [Compound 13]" target_or_system="UniProt P31645" label=satisfied
compound="Cn1cc(C2=CCN(CCc3csc4ccccc34)CC2)c2ccccc21 [Compound 30]" target_or_system="UniProt P31645" label="not satisfied"
compound="Clc1ccc2occ(CCN3CC=C(c4cnc5ccccn45)CC3)c2c1 [Compound 44]" target_or_system="UniProt P31645" label=satisfied
compound="CC(CN1CC=C(c2c[nH]c3ccccc23)CC1)c1coc2ccccc12 (stereo not shown) [Compound 35]" target_or_system="UniProt P31645" label=satisfied

[in] Problem: For the compound COc1ccc2occ(CC(C)N3CC=C(c4c[nH]c5ccccc45)CC3)c2c1 (stereo not shown) [Compound 43] , is Ki under 200 nM?
[out] satisfied

[in] Problem: For the compound C=CCn1cc(C2=CCN(CCc3csc4ccccc34)CC2)c2ccccc21 [Compound 29] , is Ki under 200 nM?
[out] not satisfied

[in] Problem: For the compound c1ccc2c(c1)ccc1c(CCN3CCC(c4c[nH]c5ccccc45)CC3)coc12 [Compound 34] , is Ki under 200 nM?
[out] not satisfied

---

Target: human 5-HT1A receptors (Homo sapiens)
Construct: expressed in transfected cells
Assay: [3H] 8-OH-DPAT displacement from 5-HT1A receptor (CHO cells stably transfected)
Assay type: binding
Lab note: anything with Ki below 20 nM is marked True; values at 20 nM or higher are marked False.

Reference set, count: 2
compound=COc1ccc2c(CCN3CC=C(c4c[nH]c5cc(C#N)ccc45)CC3)coc2c1 target_or_system="human 5-HT1A receptors (Homo sapiens)" label=True
compound=Cn1cc(C2=CCN(CCc3coc4ccccc34)CC2)c2ccccc21 target_or_system="human 5-HT1A receptors (Homo sapiens)" label=True

[in] Problem: For the compound "Cn1cc(C2=CCN(CCc3csc4ccccc34)CC2)c2ccccc21" , is Ki under 20 nM?
[out] False

[in] Problem: For the compound COc1cccc2c(CC(C)N3CC=C(c4c[nH]c5ccccc45)CC3)coc12 (stereo not drawn) , is Ki under 20 nM?
[out] True

[in] Problem: For the compound "C1=C(c2c[nH]c3ccccc23)CCN(CCc2csc3ccccc23)C1" , is Ki under 20 nM?
[out] False

[in] Problem: For the compound COc1cccc2c(CC(C)N3CC=C(c4c[nH]c5cc(F)ccc45)CC3)coc12 (stereo not drawn) , is Ki under 20 nM?
[out] False

---

Target: 5-HT transporter (Rattus norvegicus)
Construct: frontal cortical membranes prepared from male S.D. rats; from tissue; host or cells: frontal cortical membranes of male Sprague-Dawley rats
Experiment: Rat Brain 3H-Paroxetine Binding Assay (RB 5HT Transporter)
Conditions: rat frontal cortical membranes, 3H-paroxetine 0.1 nM; read-out: RB-5HT Transporter Ki
quantity-name: pKi
Hey, just a heads up that pKi is the negative log base 10 of the concentration in molar.

Consider the worked cases shown below.
record_smiles=c1ccc2c(c1)ccc1c(CCN3CCC(c4c[nH]c5ccccc45)CC3)coc12 numeric_value=7.21
record_smiles=Clc1ccc2scc(CCN3CC=C(c4c[nH]c5ccccc45)CC3)c2c1 numeric_value=6.76
record_smiles=C=CCn1cc(C2=CCN(CCc3csc4ccccc34)CC2)c2ccccc21 numeric_value=6.98

[in] Quick check: pKi on 5-HT transporter (Rattus norvegicus), item "C=CCn1cc(C2=CCN(CCc3csc4ccc(Cl)cc34)CC2)c2ccccc21" ?
[out] 6.88

---

Molecular target: human 5-HT1A receptors (Homo sapiens, UniProt P08908)
Construct: expressed in transfected cells
Sequence (P08908 whole entry): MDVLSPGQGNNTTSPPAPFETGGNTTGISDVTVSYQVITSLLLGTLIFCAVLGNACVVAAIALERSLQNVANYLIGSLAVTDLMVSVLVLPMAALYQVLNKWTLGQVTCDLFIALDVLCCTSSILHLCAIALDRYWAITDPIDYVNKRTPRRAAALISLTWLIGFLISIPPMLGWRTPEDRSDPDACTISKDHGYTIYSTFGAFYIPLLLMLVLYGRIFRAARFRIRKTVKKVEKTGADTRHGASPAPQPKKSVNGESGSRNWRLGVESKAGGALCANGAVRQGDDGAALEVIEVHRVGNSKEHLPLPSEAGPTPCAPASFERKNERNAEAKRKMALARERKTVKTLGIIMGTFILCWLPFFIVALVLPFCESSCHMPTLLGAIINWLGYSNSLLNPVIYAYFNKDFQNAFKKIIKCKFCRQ
Assay: [3H] 8-OH-DPAT displacement from 5-HT1A receptor (CHO cells stably transfected)
Assay type: binding
Conditions: read-out: 5-HT1A % inhibition at 1 μM; at 1 μM; cells marked * in the 5-HT1A column
inhibition at 1 µM for assorted compounds
Give the value, in units of %, as a plain number.

Consider the worked cases shown below.
compound=Cn1cc(C2=CCN(CCc3csc4ccc(Cl)cc34)CC2)c2ccccc21 target_or_system="human 5-HT1A receptors (Homo sapiens, UniProt P08908)" numeric_value=45
compound=Clc1ccc2scc(CCN3CC=C(c4c[nH]c5ccccc45)CC3)c2c1 target_or_system="human 5-HT1A receptors (Homo sapiens, UniProt P08908)" numeric_value=29
compound="COc1ccc2occ(CC(C)N3CC=C(c4c[nH]c5ccccc45)CC3)c2c1 (stereo not drawn)" target_or_system="human 5-HT1A receptors (Homo sapiens, UniProt P08908)" numeric_value=34
compound="CC(CN1CC=C(c2c[nH]c3cc(F)ccc23)CC1)c1coc2ccccc12 (stereo not drawn)" target_or_system="human 5-HT1A receptors (Homo sapiens, UniProt P08908)" numeric_value=11
compound=C=CCn1cc(C2=CCN(CCc3csc4ccc(Cl)cc34)CC2)c2ccccc21 target_or_system="human 5-HT1A receptors (Homo sapiens, UniProt P08908)" numeric_value=34

[in] Which inhibition at 1 µM is reported for this compound? "c1ccc2c(c1)ccc1c(CCN3CCC(c4c[nH]c5ccccc45)CC3)coc12"
[out] 48

[in] Which inhibition at 1 µM is reported for this compound? CC(CN1CC=C(c2c[nH]c3ccccc23)CC1)c1coc2ccccc12 (stereo not drawn)
[out] 28

[in] Which inhibition at 1 µM is reported for this compound? CC(CN1CC=C(c2c[nH]c3ccc(F)cc23)CC1)c1coc2ccccc12 (stereo not drawn)
[out] 20

[in] Which inhibition at 1 µM is reported for this compound? "Clc1ccc2occ(CCN3CC=C(c4cnc5ccccn45)CC3)c2c1"
[out] 44

---

Target: 5-HT transporter (Rattus norvegicus, UniProt P31652)
Construct: frontal cortical membranes prepared from male S.D. rats; from tissue; host or cells: frontal cortical membranes of male Sprague-Dawley rats
Assay: Rat Brain 3H-Paroxetine Binding Assay (RB 5HT Transporter)
pKi for assorted compounds
Hey, just a heads up that pKi is the negative log base 10 of the concentration in molar.

compound="COc1ccc2occ(CC(C)N3CC=C(c4c[nH]c5ccccc45)CC3)c2c1 (stereo not shown)" target_or_system="5-HT transporter (Rattus norvegicus, UniProt P31652)" numeric_value=7.92
compound="CC(CN1CC=C(c2c[nH]c3cc(F)ccc23)CC1)c1coc2ccccc12 (stereo not shown)" target_or_system="5-HT transporter (Rattus norvegicus, UniProt P31652)" numeric_value=8.35
compound="COc1cccc2c(CC(C)N3CC=C(c4c[nH]c5cc(F)ccc45)CC3)coc12 (stereo not shown)" target_or_system="5-HT transporter (Rattus norvegicus, UniProt P31652)" numeric_value=8.43

[in] Which pKi is reported for this compound? "Clc1ccc2occ(CCN3CC=C(c4cnc5ccccn45)CC3)c2c1"
[out] 7.01

---

For reference, Ki measured on UniProtKB P31645:
Give the value, in units of µM, as a plain number.

Consider the worked cases shown below.
compound="CC(CN1CC=C(c2c[nH]c3cc(F)ccc23)CC1)c1coc2ccccc12 (stereo not shown)" quantity_name=Ki numeric_value=0.042
compound="COc1cccc2c(CC(C)N3CC=C(c4c[nH]c5cc(F)ccc45)CC3)coc12 (stereo not shown)" quantity_name=Ki numeric_value=0.0487
compound=C1=C(c2c[nH]c3ccccc23)CCN(CCc2csc3ccccc23)C1 quantity_name=Ki numeric_value=0.0111

Would you kindly look at the next entry?
[in] Quick check: Ki on UniProtKB P31645, item COc1cccc2c(CC(C)N3CC=C(c4c[nH]c5ccccc45)CC3)coc12 (stereo not shown) ?
[out] 0.0688

The values you see were collected from patent US7235569B2.
